assay: Insulin peptide degradation by GI extracts in presence of BBI
Assay type: in vitro ADME, Sprague Dawley rats
measurement.parameters: male, Sprague Dawley, rat, real gastrointestinal fluid or homogenate, pH 6.5, Half Life of insulin peptide in presence of 0.1% BBI
*1 amine or outer side, *2 acyl side, *3 side chain or, on linkers, in order; H or OH if unused. Bridges are numbered along the chain shown (N, C = ends). Roman numbers before positions name the chains, in order. Side-chain parts run from the residue outwards. The star is where a group is joined. C18 diacid = O=C(O)CCCCCCCCCCCCCCCCC(=O)*; NMe2Phe = CN(C)[C@@H](Cc1ccccc1)C(=O)*; γGlu = O=C(O)[C@H](CCC(=O)[*:2])N[*:1]; AEEA = NCCOCCOCC(=O)O; Me2Gly = CN(C)CC(=O)*
readout.type: half-life at 10 µM

Task: # lookup: half-life at 10 µM of I: NMe2Phe-VNQHLCGSHLVEALYLVCGERGFHYTPK([AEEA-AEEA-γGlu-C18 diacid])-OH / II: Me2Gly-IVEQCCTSICSLEQLENYCN-OH (disulfide I:6-II:6, I:18-II:19, II:5-II:10) [Insulin 2]
Output: > 16.7 h
